species: Rattus norvegicus; test: DrugMatrix - Regimen: Daily Repeat; format: toxicity, organism-based, Sprague-Dawley; design: regimen Daily Repeat, gender Male, age 6-8 weeks; conditions: in vivo, po, 0 mg/kg, 120 h, tissue Plasma, route oral GAVAGE, dose level Control, time 5 day, vehicle 100 % WATER
measurement type: BLOOD UREA NITROGEN (mg/dL)
Number only, in mg/dL; omit the unit.

# annotated cases, reported BLOOD UREA NITROGEN shown
compound: CS(=O)(=O)c1ccc([C@@H](O)[C@@H](CO)NC(=O)C(Cl)Cl)cc1 [THIAMPHENICOL]
BLOOD UREA NITROGEN [mg/dL]: 16

compound: Oc1cccc(O)c1O [PYROGALLOL]
BLOOD UREA NITROGEN [mg/dL]: 16.33

compound: Cn1c(=O)c2[nH]cnc2n(C)c1=O.O [THEOPHYLLINE]
BLOOD UREA NITROGEN [mg/dL]: 16.5

compound: CC(C)(C)CC(C)(C)c1ccc(OCCOCC[N+](C)(C)Cc2ccccc2)cc1.[Cl-] [BENZETHONIUM CHLORIDE]
BLOOD UREA NITROGEN [mg/dL]: 17.67

compound: CN1[C@@H]2CC[C@H]1C[C@@H](OC(=O)C(CO)c1ccccc1)C2 (stereo partly drawn) [ATROPINE]
BLOOD UREA NITROGEN [mg/dL]: 12.67

compound: CN(C)CCOC(c1ccccc1)c1ccccc1 [DIPHENHYDRAMINE]
BLOOD UREA NITROGEN [mg/dL]: 17.67

[in] Data request, read-out BLOOD UREA NITROGEN, for Cc1ccc(NC(=O)c2ccc(CN3CCN(C)CC3)cc2)cc1Nc1nccc(-c2cccnc2)n1 [IMATINIB]
[out] 16

[in] Data request, read-out BLOOD UREA NITROGEN, for CC(C)NCC(O)c1ccc(NS(C)(=O)=O)cc1 (stereo not drawn) [SOTALOL]
[out] 17
